Sourced from patent US9980943B2

Tested on: α7 integrin (LacZ reporter in α7βgal+/− myoblasts)
Assay procedure: Myoblast α7+/LacZ integrin FDG assay (Burkin assay in myoblasts, 96-well)
Assay type: cell-based, mouse
Protocol conditions: 40 uM; α7+/LacZ myoblasts, 96-well
Observed property: Burkin Assay in Myoblasts, signal relative to DMSO
Lab note: jot the number down without any unit.

Solved entries:
Compound	Data value
CC(O)CNc1nc2c(c(=O)n(Cc3ccc(Br)cc3)c(=O)n2C)n1C (stereo not drawn)	0.782
CCOc1cc(C)c(S(=O)(=O)N2CCCCC2)cc1C	1.24
CCOc1ccccc1NC(=O)c1cccc2c1C(=O)N(C1CCCCC1)C2	1.022
O=C(CCc1ccccc1)c1nnc(-c2ccccc2)o1	0.9374

Problem: Burkin Assay in Myoblasts, signal relative to DMSO lookup needed for "O=C(O)c1cc(N=Cc2c(O)c3ccccc3oc2=O)ccc1O" , thanks.
Solution: 0.8933

Problem: Also check CC(=O)Nc1ccc(N(C(=O)c2cnccn2)C(C(=O)NC2CCCCC2)c2ccc(F)cc2)cc1 (stereo not drawn)
Solution: 0.888

Problem: Also check "Cc1ccccc1-n1c(Cc2cccs2)n[nH]c1=S"
Solution: 1.011

Problem: Also check "COc1cc(NC(=O)OCc2ccccc2)c2ncccc2c1"
Solution: 0.8314

Problem: Also check "c1ccc(-c2nn[nH]n2)nc1"
Solution: 0.9754
